# Ki values compiled below
Target: M₁ receptors (Rattus norvegicus, UniProt P08482)
Sequence (P08482 1-460): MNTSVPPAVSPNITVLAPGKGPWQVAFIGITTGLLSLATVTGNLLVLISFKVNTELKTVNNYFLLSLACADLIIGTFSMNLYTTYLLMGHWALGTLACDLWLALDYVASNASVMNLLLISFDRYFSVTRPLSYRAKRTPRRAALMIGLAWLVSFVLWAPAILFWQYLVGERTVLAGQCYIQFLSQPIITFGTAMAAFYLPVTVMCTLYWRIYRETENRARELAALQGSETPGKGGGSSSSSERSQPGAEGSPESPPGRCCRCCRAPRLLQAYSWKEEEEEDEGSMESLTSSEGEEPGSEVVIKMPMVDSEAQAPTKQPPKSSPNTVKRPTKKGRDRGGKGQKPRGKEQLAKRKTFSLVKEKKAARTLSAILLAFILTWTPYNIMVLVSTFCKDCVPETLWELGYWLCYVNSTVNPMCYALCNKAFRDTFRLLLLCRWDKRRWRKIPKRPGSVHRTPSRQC
# output: numeric value plus its unit

compound | value.kind | value
CN1CCC(C(=O)N2c3ccccc3C(=O)Nc3cccnc32)CC1 [Nuvenzepine] | Ki | 1.5 nM

Consider CN1CCCC(C(=O)N2c3ccccc3C(=O)Nc3cccnc32)C1 (centres unmarked) [Rispenzepine] . Its measured Ki is 2.61 nM
